Cited source: patent US4608390A

Molecular target: 15-lipoxygenase (Glycine max)
Construct: 15-lipoxygenase obtained from soybean; from tissue; host or cells: soybean
Sequence (P08170 1-839): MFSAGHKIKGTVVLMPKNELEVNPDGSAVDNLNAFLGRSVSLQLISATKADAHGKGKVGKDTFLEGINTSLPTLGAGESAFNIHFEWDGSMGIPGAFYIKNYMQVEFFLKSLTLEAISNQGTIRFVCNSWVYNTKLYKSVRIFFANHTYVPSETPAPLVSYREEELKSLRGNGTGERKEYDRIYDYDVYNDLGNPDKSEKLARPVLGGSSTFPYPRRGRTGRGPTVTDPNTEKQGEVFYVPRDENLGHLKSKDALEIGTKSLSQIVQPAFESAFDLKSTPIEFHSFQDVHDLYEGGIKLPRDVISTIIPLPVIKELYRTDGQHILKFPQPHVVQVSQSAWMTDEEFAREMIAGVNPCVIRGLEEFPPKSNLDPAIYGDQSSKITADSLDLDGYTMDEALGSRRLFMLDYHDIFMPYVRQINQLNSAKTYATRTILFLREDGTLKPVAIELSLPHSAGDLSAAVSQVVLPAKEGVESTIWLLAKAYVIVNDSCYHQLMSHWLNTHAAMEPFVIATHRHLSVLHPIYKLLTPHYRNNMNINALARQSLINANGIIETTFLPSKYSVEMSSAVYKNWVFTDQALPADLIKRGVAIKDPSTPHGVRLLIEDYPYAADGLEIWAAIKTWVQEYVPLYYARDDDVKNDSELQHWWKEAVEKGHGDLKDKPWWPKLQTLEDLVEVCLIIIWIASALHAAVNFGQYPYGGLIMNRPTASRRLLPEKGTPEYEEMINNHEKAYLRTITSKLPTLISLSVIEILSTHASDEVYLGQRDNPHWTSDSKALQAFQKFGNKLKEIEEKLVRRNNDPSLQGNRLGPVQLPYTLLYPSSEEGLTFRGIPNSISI
Experiment: 15-lipoxygenase inhibition (15-lipoxygenase obtained from soybean)
Type: biochemical
Details: read-out: % Inhibition at Indicated Concentration, 15-lipoxygenase, 100 μM
measured_metric: inhibition at 100 µM

Recorded inhibition at 100 µM for `CN(O)C(=O)C=Cc1cccc2ccccc12` on 15-lipoxygenase (Glycine max) was 88%

Recorded inhibition at 100 µM for `CN(O)C(=O)C=Cc1ccc2ccccc2c1` on 15-lipoxygenase (Glycine max) was 83%

Recorded inhibition at 100 µM for `O=C(C=Cc1ccc2ccccc2c1)N(O)C1CCCCC1` on 15-lipoxygenase (Glycine max) was 83%

Recorded inhibition at 100 µM for `CC(=CC(=O)N(C)O)c1ccc2ccccc2c1` on 15-lipoxygenase (Glycine max) was 88%

Recorded inhibition at 100 µM for `CN(O)C(=O)C=Cc1cc2ccccc2cc1[N+](=O)[O-]` on 15-lipoxygenase (Glycine max) was 49%

Recorded inhibition at 100 µM for O=C(C=Cc1ccc2ccccc2c1)NO [Example 1, 3-(2-naphthyl)acrylohydroxamic acid] on 15-lipoxygenase (Glycine max) was 19%

Recorded inhibition at 100 µM for O=C(CCc1ccc2ccccc2c1)NO [Example 18, 3-(2-naphthyl)propiohydroxamic acid] on 15-lipoxygenase (Glycine max) was 31%

Recorded inhibition at 100 µM for `Cc1ccc2ccc(CCC(=O)NO)cc2c1` on 15-lipoxygenase (Glycine max) was 33%

Recorded inhibition at 100 µM for `O=C(C=Cc1ccc2ccccc2c1)N(O)c1ccccc1` on 15-lipoxygenase (Glycine max) was 30%

Recorded inhibition at 100 µM for `CC(=Cc1ccc2ccccc2c1)C(=O)N(C)O` on 15-lipoxygenase (Glycine max) was 88%
